EXPERIMENTAL_TARGET: T1, Bbc1, P47068
T1 sequence (P47068 1-78, looked up): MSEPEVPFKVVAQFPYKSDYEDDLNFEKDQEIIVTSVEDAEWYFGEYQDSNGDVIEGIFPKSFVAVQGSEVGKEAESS
TEST: SPOT array
MEASUREMENT_CONTEXT: median of control spots 796
MEASURED_PROPERTY: SPOT intensity

[[record]]
binder = "IAPIPMPKPNPTHIS"
measured_property = "SPOT intensity"
observed_result = 0

[[record]]
binder = "FYNRTAFQLPGDARV"
measured_property = "SPOT intensity"
observed_result = 0

[[record]]
binder = "SRYRRPLTLLLLKPF"
measured_property = "SPOT intensity"
observed_result = 140


Ask | Please give the measured SPOT intensity for this binder: WRPRIVPILPYITRL
Reply | 87
